// reported Percent Effect per item
- system.name: Aspartate--tRNA(Asp/Asn) ligase (Mycobacterium tuberculosis (strain ATCC 25618 / H37Rv))
- protocol.summary: Assay for Asp RNA synthetase-1 from Mycobacterium tuberculosis
- Format: functional
- Set-up: scale not given: in the data most compounds retested in dose-response had high values
- reported.conditions: 30 µM
Please answer in the form of a number followed by its unit of measurement.

O=C([C@H]1C[C@H]2OCC[C@H]2N(C(=O)c2ccncc2)C1)N1CCCCO1	-3.79%

Form field, Percent Effect with Aspartate--tRNA(Asp/Asn) ligase (Mycobacterium tuberculosis (strain ATCC 25618 / H37Rv)), item CCc1ncc(C(=O)NCCNC(=O)Cc2ccc(F)cc2)s1 : -2.42%

Form field, Percent Effect with Aspartate--tRNA(Asp/Asn) ligase (Mycobacterium tuberculosis (strain ATCC 25618 / H37Rv)), item Cc1cc(CN2CCCC2c2c(C)nn(C)c2Cl)no1 (stereo not drawn) : -1.57%

Form field, Percent Effect with Aspartate--tRNA(Asp/Asn) ligase (Mycobacterium tuberculosis (strain ATCC 25618 / H37Rv)), item O=C(c1ccc(C(F)(F)F)nc1)N1CCCC(n2cncn2)C1 (stereo not drawn) : -4.88%

Form field, Percent Effect with Aspartate--tRNA(Asp/Asn) ligase (Mycobacterium tuberculosis (strain ATCC 25618 / H37Rv)), item Cc1nc(N2CCOCC2)nc2c1CN(C(=O)Cc1ccccn1)CC2 : -2.71%

Form field, Percent Effect with Aspartate--tRNA(Asp/Asn) ligase (Mycobacterium tuberculosis (strain ATCC 25618 / H37Rv)), item CC(C(=O)N1CCN(c2ccccc2Cl)CC1)n1cncn1 (stereo not drawn) : -1.38%

Form field, Percent Effect with Aspartate--tRNA(Asp/Asn) ligase (Mycobacterium tuberculosis (strain ATCC 25618 / H37Rv)), item CN1CCOC(CNCCc2ccccn2)C1 (stereo not drawn) : -3.97%

====

// reported Percent Effect per item
- system.name: Aspartate--tRNA(Asp/Asn) ligase (Mycobacterium tuberculosis (strain ATCC 25618 / H37Rv)) (UniProt P9WFW3)
- protocol.summary: Assay for Asp RNA synthetase-1 from Mycobacterium tuberculosis
- Format: functional
- Parameters: scale not given: in the data most compounds retested in dose-response had high values
- reported.conditions: 30 µM

OC(CN1CCCCCCC1)c1ccc(F)cc1 (stereo not drawn)	-2.26%
O=C(NCc1ccco1)[C@@H]1CCO[C@@H]2CCN(c3ccncn3)C[C@H]21	1.19%

Now consider a different molecule.
Per the records, this molecule ( Cc1c(CN2CCCC(c3[nH]ncc3S(C)(=O)=O)C2)cnn1C (stereo not drawn) ) has Percent Effect equal to -0.927%

====

- system.name: Aspartate--tRNA(Asp/Asn) ligase (Mycobacterium tuberculosis (strain ATCC 25618 / H37Rv))
- Sequence (whole entry): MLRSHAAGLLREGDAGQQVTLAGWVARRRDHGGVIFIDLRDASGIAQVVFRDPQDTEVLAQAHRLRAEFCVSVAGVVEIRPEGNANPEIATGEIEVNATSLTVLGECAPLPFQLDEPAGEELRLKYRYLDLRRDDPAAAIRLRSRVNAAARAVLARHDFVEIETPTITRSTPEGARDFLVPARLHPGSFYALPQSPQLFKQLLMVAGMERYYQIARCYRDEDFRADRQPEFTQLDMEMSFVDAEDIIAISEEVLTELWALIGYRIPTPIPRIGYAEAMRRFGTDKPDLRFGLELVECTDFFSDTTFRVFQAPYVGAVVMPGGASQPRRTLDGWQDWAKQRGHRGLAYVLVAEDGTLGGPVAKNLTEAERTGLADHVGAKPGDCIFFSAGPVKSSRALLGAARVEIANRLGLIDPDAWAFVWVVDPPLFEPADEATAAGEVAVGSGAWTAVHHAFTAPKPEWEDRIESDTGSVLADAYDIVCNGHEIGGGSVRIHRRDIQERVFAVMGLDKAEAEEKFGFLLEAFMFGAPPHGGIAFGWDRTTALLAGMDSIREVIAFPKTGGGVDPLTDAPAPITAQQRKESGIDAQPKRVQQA
- protocol.summary: Assay for Asp RNA synthetase-1 from Mycobacterium tuberculosis
- Format: functional
- Parameters: scale not given: in the data most compounds retested in dose-response had high values
- reported.conditions: 30 µM
// reported Percent Effect per item
Give just the numeric value; % need not be written.

Worked cases, answers included:
CC(=O)Nc1nc(C2CCN(C(C)=O)CC2)cs1	-1.69
O=C(c1cc(-n2cnnn2)ccc1Cl)N1CCC2(CC1)OCCO2	0.24
CCN(CC)C(=O)Cn1ccc2cc(NC(=O)C3CCCO3)ccc21 (stereo unspecified)	-4.41
CCc1nnc2n1CCN(C(=O)c1cc(Br)c[nH]1)C2	-3.52
CC(C)N1CCN(C(=O)Nc2cnn(CC(N)=O)c2)CC1	-5.08

Per the records, this compound ( COC(=O)c1ccc(C2CC(=O)Oc3cc(C)[nH]c(=O)c32)cc1 (stereo unspecified) ) has Percent Effect equal to -5.75

Per the records, this compound ( COCCN1C(=O)CCC12CCN(C(=O)NC(C)C)CC2 ) has Percent Effect equal to -3.16

Per the records, this compound ( Cc1cc(C(=O)N[C@@H]2CCNC[C@H]2O)ccc1Cl ) has Percent Effect equal to 2.13

Per the records, this compound ( COCCN(Cc1ccc(F)cc1Cl)C(=O)c1ccncc1 ) has Percent Effect equal to -5.35

Per the records, this compound ( CN(C)CC(=O)N1CCOCC2(C1)CN(c1ccccc1)C(=O)CO2 (stereo unspecified) ) has Percent Effect equal to 3.93

Per the records, this compound ( CC(C)(C)c1nnc(CN2CCCC(c3cc(C(N)=O)[nH]n3)C2)o1 (stereo unspecified) ) has Percent Effect equal to -0.781

Source: ChEMBL document CHEMBL3988442
